Target: Human HDAC5 (Homo sapiens, UniProt Q9UQL6)
Construct: full length with C-terminal His tag, MW=51.1 kDa; His (C); host or cells: baculovirus expression system
Sequence (Q9UQL6 656-1122 limits assumed): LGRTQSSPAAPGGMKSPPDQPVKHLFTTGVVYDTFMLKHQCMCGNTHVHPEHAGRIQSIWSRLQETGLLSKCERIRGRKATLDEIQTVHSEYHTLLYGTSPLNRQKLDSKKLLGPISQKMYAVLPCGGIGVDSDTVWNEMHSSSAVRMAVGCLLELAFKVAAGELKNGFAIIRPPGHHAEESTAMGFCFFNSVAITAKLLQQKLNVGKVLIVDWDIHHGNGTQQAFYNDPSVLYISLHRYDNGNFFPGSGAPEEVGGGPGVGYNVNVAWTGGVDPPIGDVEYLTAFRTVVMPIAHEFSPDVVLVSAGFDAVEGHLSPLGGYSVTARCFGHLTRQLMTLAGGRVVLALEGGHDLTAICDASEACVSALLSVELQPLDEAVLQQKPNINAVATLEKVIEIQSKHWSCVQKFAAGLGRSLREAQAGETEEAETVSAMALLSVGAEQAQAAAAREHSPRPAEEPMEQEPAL
Test: HDAC5 biochemical assay, class IIa-specific substrate
Settings: read-out: HDAC Isoform IC50 (nM) 5
Procedure: Activity against all zinc-dependent HDACs 1 to 11 was assessed by using an acetylated AMC-labeled peptide substrate. The substrate RHKK(Ac)AMC was used for HDAC1, HDAC2, HDAC3, HDAC6 and HDAC10; the substrate used for HDAC8 was RHK(Ac)K(Ac)AMC. Activity against the class IIa HDACs (HDAC4, 5, 7, 9) and HDAC11 was determined using a class IIa-specific substrate, BOC-Lys(trifluoroacetyl)-AMC (“Trifluoroacetyl Lysine”; see Lahm et al, 2007, PNAS, 104, 17335-17340). […]

{"MOLECULE": "FC(F)(F)c1cnnc(N(Cc2ccc(-c3noc(C(F)(F)F)n3)s2)c2cccnc2)c1 [Example EI]", "IC50": "≤ 1000 nM"}
{"MOLECULE": "FC(F)(F)c1nc(-c2ccc(CN(c3cnccn3)c3ccnc4ccnn34)s2)no1 [Example CF]", "IC50": "≤ 10000 nM"}
{"MOLECULE": "CC(=O)Nc1cnnc(N(Cc2ccc(-c3noc(C(F)(F)F)n3)s2)c2cnccn2)c1 [Example FM]", "IC50": "≤ 500 nM"}
{"MOLECULE": "COc1cncc(N(Cc2ccc(-c3noc(C(F)(F)F)n3)s2)c2cc(C(F)(F)F)cnn2)n1 [Example EN]", "IC50": "≤ 10000 nM"}
{"MOLECULE": "Cc1cncc(N(Cc2ccc(-c3noc(C(F)(F)F)n3)s2)c2cncc(C)n2)n1 [Example BX]", "IC50": "≤ 10000 nM"}
{"MOLECULE": "FC(F)(F)c1cnnc(N(Cc2ccc(-c3noc(C(F)(F)F)n3)s2)c2ccncn2)c1 [Example EL]", "IC50": "≤ 1000 nM"}
{"MOLECULE": "CS(=O)(=O)c1cc(N(Cc2ccc(-c3noc(C(F)(F)F)n3)s2)c2cnccn2)ncn1 [Example CK]", "IC50": "≤ 10000 nM"}
{"MOLECULE": "O=C(c1cnnc(N(Cc2ccc(-c3noc(C(F)(F)F)n3)s2)c2cnccn2)c1)N1CC2CCC(C1)O2 [Example GA]", "IC50": "≤ 1000 nM"}
